- TARGET OR SYSTEM: Avi-KRAS WT (1-169) GppNHp/RAF1 RBD-3xFLAG (52-151) (Homo sapiens)
- Construct: Avi-KRAS WT (1-169)
- Sequence (P01116 1-169 isoform P01116-2): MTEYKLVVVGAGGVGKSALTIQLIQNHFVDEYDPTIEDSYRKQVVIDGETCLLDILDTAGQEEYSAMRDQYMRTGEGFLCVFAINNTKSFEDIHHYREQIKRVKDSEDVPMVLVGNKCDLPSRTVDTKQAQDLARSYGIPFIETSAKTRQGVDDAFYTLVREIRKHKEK
- ASSAY: Raf1-KRAS WT-GppNHP disruption HTRF assay (Biological Example 1)
- Format: binding
- PROTOCOL CONDITIONS: KRAS WT-GppNHp/RAF1 RBD HTRF
pIC50: −log10 of the molar value.
OBSERVED PROPERTY: pIC50

Use the examples below as a reference point.
Reported pIC50 for N#Cc1c(N)sc2c(F)ccc(-c3c(C(F)(F)F)cc4c(N5CCn6cnnc6C5)nc(OC[C@@]56CCCN5C[C@H](F)C6)nc4c3F)c12 [Compound 294] was 6.00 to 7.00

Looking up CCN(c1nc(OC[C@@]23CCCN2C[C@H](F)C3)nc2c(F)c(-c3ccc(F)c4sc(N)c(C#N)c34)c(C(F)(F)F)cc12)[C@H]1CCN(C(=O)COC)C1 (atropisomer, axis not shown) [Compound 561] , I found its pIC50 recorded as > 7.00

// sample CN(C)C(=O)[C@H]1CN(c2nc(OC[C@@]34CCCN3C[C@H](F)C4)nc3c(F)c(-c4ccc(F)c5sc(N)c(C#N)c45)c(C(F)(F)F)cc23)CCO1 [Compound 465] , its pIC50 was 6.00 to 7.00

Looking up CN1CC[C@H](N(C)c2nc(OC[C@@]34CCCN3C[C@H](F)C4)nc3c(F)c(-c4ccc(F)c5sc(N)c(C#N)c45)c(C(F)(F)F)cc23)CC1=O [Compound 281] , I found its pIC50 recorded as 6.00 to 7.00

Continuing:
What the record says about CCN(c1nc(OC[C@@]23CCCN2C[C@H](F)C3)nc2c(F)c(-c3ccc(F)c4sc(N)c(C#N)c34)c(C(F)(F)F)cc12)[C@@H]1C[C@@H](C)N(C(C)=O)C1 (atropisomer, axis not shown) [Compound 527] : pIC50 is 6.00 to 7.00

----------
- TARGET OR SYSTEM: Avi-KRAS G12R (1-169) GppNHp/RAF1 RBD-3xFLAG (52-151) (Homo sapiens, UniProt P01116, G12R)
- Construct: Avi-KRAS G12R (1-169)
- Sequence (P01116 1-169 isoform P01116-2 G12R): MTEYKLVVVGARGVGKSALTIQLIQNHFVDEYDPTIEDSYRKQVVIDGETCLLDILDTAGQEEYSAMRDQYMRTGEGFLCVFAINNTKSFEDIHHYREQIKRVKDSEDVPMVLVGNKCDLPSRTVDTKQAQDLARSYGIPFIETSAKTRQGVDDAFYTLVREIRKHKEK
- ASSAY: Raf1-KRAS G12R-GppNHP disruption HTRF assay (Biological Example 1)
- Assay type: binding
- PROTOCOL CONDITIONS: KRAS G12R-GppNHp/RAF1 RBD HTRF
pIC50: −log10 of the molar value.
OBSERVED PROPERTY: pIC50

Quick note, pIC50 for CC(=O)N1CCC2[C@H]1CCN2c1nc(OC[C@@]23CCCN2C[C@H](F)C3)nc2c(F)c(-c3ccc(F)c4sc(N)c(C#N)c34)c(C(F)(F)F)cc12 (stereo partly shown) landed at 5.00 to 6.00

For this compound ( CC(C)C(=O)N1C[C@@H](N(C)c2nc(OC[C@@]34CCCN3C[C@H](F)C4)nc3c(F)c(-c4ccc(F)c5sc(N)c(C#N)c45)c(C(F)(F)F)cc23)C[C@@H]1C ), measured pIC50 is 6.00 to 7.00

---
Briefly, pIC50 measured for CN1C[C@@H](N(C)c2nc(OC[C@@]34CCCN3C[C@H](F)C4)nc3c(F)c(-c4ccc(F)c5sc(N)c(C#N)c45)c(C(F)(F)F)cc23)CCC1=O : 5.00 to 6.00

Value of measured pIC50 for the entry CCN(c1nc(OC[C@@]23CCCN2C[C@H](F)C3)nc2c(F)c(-c3ccc(F)c4sc(N)c(C#N)c34)c(C(F)(F)F)cc12)[C@@H]1C[C@H](C)N(C(=O)OC)C1 (atropisomer, axis not shown) : 6.00 to 7.00

GET /value?item= [2H]C1([2H])O[C@@H]2C[C@H]1N(c1nc(OC[C@@]34CCCN3C[C@H](F)C4)nc3c(F)c(-c4ccc(F)c5sc(N)c(C#N)c45)c(C(F)(F)F)cc13)C2 &field=pIC50 returns 6.00 to 7.00

// sample CC(=O)N1C[C@H](N(C)c2nc(OC[C@@]34CCCN3C[C@H](F)C4)nc3c(F)c(-c4ccc(F)c5sc(N)c(C#N)c45)c(C(F)(F)F)cc23)C[C@H]1C , its pIC50 was 6.00 to 7.00

Briefly, pIC50 measured for CCN(c1nc(OC[C@@]23CCCN2C[C@H](F)C3)nc2c(F)c(-c3ccc(F)c4sc(N)c(C#N)c34)c(C(F)(F)F)cc12)[C@H]1C[C@H](C)N(C(C)=O)C1 : > 7.00

For record C[C@@H]1[C@H](N(C)c2nc(OC[C@@]34CCCN3C[C@H](F)C4)nc3c(F)c(-c4ccc(F)c5sc(N)c(C#N)c45)c(C(F)(F)F)cc23)CCN1C(=O)C(C)(C)F the listed pIC50 is 6.00 to 7.00

The compound N#Cc1c(N)sc2c(F)ccc(-c3c(C(F)(F)F)cc4c(N5CC6C(=O)NC(=O)C6C5)nc(OC[C@@]56CCCN5C[C@H](F)C6)nc4c3F)c12 (stereo partly shown) showed pIC50 equal to 5.00 to 6.00

Summary for this compound, CCC(=O)N1CC[C@@H]2[C@H]1CN2c1nc(OC[C@@]23CCCN2C[C@H](F)C3)nc2c(F)c(-c3ccc(F)c4sc(N)c(C#N)c34)c(C(F)(F)F)cc12 : pIC50 is 6.00 to 7.00

----------
IC50 for assorted molecules
- TARGET OR SYSTEM: Avi-KRAS WT (1-169) GppNHp/RAF1 RBD-3xFLAG (52-151) (Homo sapiens)
- Construct: Avi-KRAS WT (1-169)
- ASSAY: Raf1-KRAS WT-GppNHP disruption HTRF assay (Biological Example 1)
- Assay type: binding
- PROTOCOL CONDITIONS: KRAS WT, GppNHp-loaded; Table 11

// IC50 value for CC(=O)N1C[C@@H](N(C)c2nc(OC[C@@]34CCCN3C[C@H](F)C4)nc3c(F)c(-c4ccc(F)c5sc(N)c(C#N)c45)c(C(F)(F)F)cc23)[C@@H](F)C1 [Compound 187] : 100 to 1000 nM

For reference, reported IC50 for CC(=O)N1CC[C@H](N(C)c2nc(OC[C@@]34CCCN3C[C@H](F)C4)nc3c(F)c(-c4ccc(F)c5sc(N)c(C#N)c45)c(C(F)(F)F)cc23)[C@H]1C [Compound 191] stands at 100 to 1000 nM

Entry under test: N#Cc1c(N)sc2c(F)ccc(-c3c(C(F)(F)F)cc4c(N5CC6CC5CO6)nc(OC[C@@]56CCCN5C[C@H](F)C6)nc4c3F)c12 (stereo partly drawn) [Compound 147] . Its IC50 was 100 to 1000 nM

***
Lookup result for Nc1nc2c(-c3c(C(F)(F)F)cc4c(N[C@H]5CC[C@H](O)CC5)nc(OCC56CCCN5CCC6)nc4c3F)ccc(F)c2s1 [Compound 63] ; measured IC50: 1000 to 10000 nM

Summary for this molecule, CCCN(C)c1nc(OC[C@@]23CCCN2C[C@H](F)C3)nc2c(F)c(-c3ccc(F)c4sc(N)c(C#N)c34)c(C(F)(F)F)cc12 [Compound 120] : IC50 is 100 to 1000 nM

response.value for CC1(CO)CCN(c2nc(OCC34CCCN3CC(F)C4)nc3c(F)c(-c4ccc(F)c5sc(N)c(C#N)c45)c(C(F)(F)F)cc23)CC1 (stereo not drawn) [Compound 48] (field: IC50) = 100 to 1000 nM

----------
// IC50 lookup, one value per entry
- TARGET OR SYSTEM: Avi-KRAS G12R (1-169) GppNHp/RAF1 RBD-3xFLAG (52-151) (Homo sapiens, UniProt P01116, G12R)
- Construct: Avi-KRAS G12R (1-169)
- ASSAY: Raf1-KRAS G12R-GppNHP disruption HTRF assay (Biological Example 1)
- Format: binding
- PROTOCOL CONDITIONS: KRAS G12R-GppNHp/RAF1 RBD HTRF

Record C[C@H]1[C@H](N(C)c2nc(OC[C@@]34CCCN3C[C@H](F)C4)nc3c(F)c(-c4ccc(F)c5sc(N)c(C#N)c45)c(C(F)(F)F)cc23)CCN1C(=O)C1CC1 , field IC50: 1000 to 10000 nM

Note to self: IC50 recorded for CC(=O)N1CC[C@](C)(N(C)c2nc(OC[C@@]34CCCN3C[C@H](F)C4)nc3c(F)c(-c4ccc(F)c5sc(N)c(C#N)c45)c(C(F)(F)F)cc23)C1 was 1000 to 10000 nM

Lookup result for CCC(=O)N1CC[C@@H](N(C)c2nc(OC[C@@]34CCCN3C[C@H](F)C4)nc3c(F)c(-c4ccc(F)c5sc(N)c(C#N)c45)c(Cl)cc23)[C@H]1C ; measured IC50: 100 to 1000 nM

CCN(c1nc(OC[C@@]23CCCN2C[C@H](F)C3)nc2c(F)c(-c3ccc(F)c4sc(N)c(C#N)c34)c(C(F)(F)F)cc12)[C@H]1C[C@H]2CN(C)C(=O)N2C1 (atropisomer, axis not shown; (aS)) has a reported IC50 of < 100 nM

Summary for this compound, CCC(=O)N1CC[C@@H](N(C)c2nc(OC[C@@]34CCCN3C[C@H](F)C4)nc3c(F)c(-c4ccc(F)c5sc(N)c(C#N)c45)c(C(F)(F)F)cc23)[C@H]1CC : IC50 is 100 to 1000 nM
